subject-of-test: human CB1 receptor (Homo sapiens)
Sequence (P21554 whole entry): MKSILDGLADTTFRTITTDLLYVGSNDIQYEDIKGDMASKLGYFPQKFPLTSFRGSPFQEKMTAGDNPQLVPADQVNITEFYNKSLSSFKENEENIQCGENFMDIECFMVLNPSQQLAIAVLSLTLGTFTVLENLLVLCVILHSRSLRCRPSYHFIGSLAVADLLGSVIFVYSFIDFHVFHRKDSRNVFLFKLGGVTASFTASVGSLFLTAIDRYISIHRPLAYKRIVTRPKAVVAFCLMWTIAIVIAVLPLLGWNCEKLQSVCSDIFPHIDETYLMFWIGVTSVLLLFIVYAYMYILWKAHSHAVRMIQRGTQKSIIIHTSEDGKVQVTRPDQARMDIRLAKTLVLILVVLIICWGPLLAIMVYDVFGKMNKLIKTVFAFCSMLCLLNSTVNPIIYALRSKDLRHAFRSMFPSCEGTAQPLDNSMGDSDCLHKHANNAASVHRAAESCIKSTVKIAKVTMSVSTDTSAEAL
experiment: [35S] GTPγS binding on membranes of CHO cells expressing the human CB1 receptor (agonism)
Type: biochemical
Parameters: expressed in transfected cells; membrane preparation
experimental-parameters: human CB1, CHO cell membranes, read-out: GTPγS EC50
# EC50 values compiled below
Enter your answer as a number in nM; do not include the unit.

Query: Query (molecule): CC(C)(C)C(NC(=O)c1nn(Cc2ccc(F)cc2)c2ccccc12)c1nnc(C(N)=O)o1 (stereo not drawn) [Example 122] ; field requested: EC50
Reply: 13.1

Query: Entry CC(C)(C)[C@H](NC(=O)c1nn(Cc2ccc(F)cc2)c2ccccc12)C(=O)NCCc1n[nH]c(=O)[nH]1 [Example 506] please
Reply: 8.97

Query: Next up: CC(C)(C)[C@H](NC(=O)c1nn(Cc2ccc(F)cc2)c2ccccc12)C(=O)N1CCN(C(=O)CCC(N)=O)CC1 [Example 228]
Reply: 15.1
